- ASSAY REMARKS: Dissociation constant, pKa of the compound
- Assay type: physicochemical
MEASURED QUANTITY: pKa

| MOLECULE | pKa |
| --- | --- |
| C[C@@H](O[C@H]1CC[C@@H](N(C)Cc2c[nH]c(O)n2)[C@@H]1c1ccc(F)cc1)c1cc(C(F)(F)F)cc(C(F)(F)F)c1 | 6.2 |
| CN(CC(N)=O)C1CCC(OCc2cc(C(F)(F)F)cc(C(F)(F)F)c2)C1c1ccccc1 (configuration not stated) | 5.8 |
| CNC(=O)CN(C)[C@@H]1CC[C@H](O[C@H](C)c2cc(C(F)(F)F)cc(C(F)(F)F)c2)[C@H]1c1ccc(F)cc1 | 5.3 |
| NC(=O)CNC1CCC(OCc2cc(C(F)(F)F)cc(C(F)(F)F)c2)C1c1ccccc1 (configuration not stated) | 6.6 |
| C[C@@H](O[C@H]1CC[C@@H](N(C)CC(N)=O)[C@@H]1c1ccc(F)cc1)c1cc(C(F)(F)F)cc(C(F)(F)F)c1 | 5.3 |
| C[C@@H](O[C@H]1CC[C@@H](N(C)Cc2n[nH]c(O)n2)[C@@H]1c1ccc(F)cc1)c1cc(C(F)(F)F)cc(C(F)(F)F)c1 | 4.7 |
